pEC50 for assorted molecules
# test-system: UniProt:P21462
# Sequence (P21462 whole entry): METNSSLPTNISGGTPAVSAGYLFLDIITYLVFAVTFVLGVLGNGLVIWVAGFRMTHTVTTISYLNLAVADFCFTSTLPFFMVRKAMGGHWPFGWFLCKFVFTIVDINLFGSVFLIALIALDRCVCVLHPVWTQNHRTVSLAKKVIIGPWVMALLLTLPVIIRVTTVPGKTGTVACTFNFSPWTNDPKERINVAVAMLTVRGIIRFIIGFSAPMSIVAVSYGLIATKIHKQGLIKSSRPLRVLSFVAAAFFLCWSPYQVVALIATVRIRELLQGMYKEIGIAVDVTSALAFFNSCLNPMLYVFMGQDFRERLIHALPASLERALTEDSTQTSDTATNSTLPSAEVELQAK
# assay-remarks: FPR1 cyclic adenosine monophosphate (cAMP) assay
# protocol-conditions: CHO cells overexpressing human FPR1; forskolin 10 μM; inhibition of cAMP production; HTRF; read-out: hFPR1 cAMP2 EC50
pEC50: −log10 of the molar value.

Example entries begin here.
{"molecule": "COc1cc(F)c(-c2c(NC(=O)c3ccc(Cl)cc3)c(=O)n(-c3ccc(Cl)cc3)n2C)c(F)c1", "result": 6.57}
{"molecule": "COc1cc(F)c(-c2c(NC(=O)c3ccc(OC(F)F)cc3)c(=O)n(-c3cc(OC)ccc3Cl)n2C)c(F)c1", "result": "< 5.00"}
{"molecule": "CNC(=O)CNc1ccc(C(F)(F)F)c(-n2c(=O)c(NC(=O)c3ccc(OC(F)F)cc3)c(-c3c(F)cc(OC)cc3F)n2C)n1", "result": "< 5.00"}
{"molecule": "COc1cc(O)c(-c2c(NC(=O)c3ccc(OC(F)F)cc3)c(=O)n(-c3nc(Cl)ccc3Cl)n2C)c(F)c1", "result": "< 5.00"}

Query COc1cc(C2CCCN(CCO)C2)nc(-n2c(=O)c(NC(=O)c3ccc(OC(F)F)cc3)c(-c3c(F)cc(OC)cc3F)n2C)c1 (stereo not drawn) [Example 338] yields pEC50 of < 5.00

Query COc1cc(F)c(-c2c(NC(=O)c3ccc(OC(F)F)cc3)c(=O)n(-c3nc(N[C@@H]4CCOC4)ccc3C(F)(F)F)n2C)c(F)c1 yields pEC50 of < 5.00
